# target: Aromatase (Homo sapiens, UniProt P11511)
# Sequence (P11511 whole entry): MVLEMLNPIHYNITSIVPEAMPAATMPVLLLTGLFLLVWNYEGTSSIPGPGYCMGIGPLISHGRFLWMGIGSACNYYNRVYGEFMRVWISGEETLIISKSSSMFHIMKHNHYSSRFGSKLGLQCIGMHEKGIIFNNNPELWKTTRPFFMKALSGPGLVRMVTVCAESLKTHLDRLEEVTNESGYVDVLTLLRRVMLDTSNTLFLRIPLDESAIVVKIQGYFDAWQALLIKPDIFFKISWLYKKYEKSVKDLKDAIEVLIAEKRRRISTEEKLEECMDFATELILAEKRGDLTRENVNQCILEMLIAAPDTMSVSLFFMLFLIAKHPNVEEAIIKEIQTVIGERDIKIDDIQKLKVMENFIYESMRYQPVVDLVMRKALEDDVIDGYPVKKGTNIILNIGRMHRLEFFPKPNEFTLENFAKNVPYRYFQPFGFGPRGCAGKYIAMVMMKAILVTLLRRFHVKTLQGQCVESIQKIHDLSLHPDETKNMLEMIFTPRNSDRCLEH
Entries and their IC50 values follow.

{"columns": ["compound", "endpoint-unit", "IC50"],
 "data": [
  ["CCCCO[C@H]1C[C@@H]2[C@H](CC[C@]3(C)C(=O)CC[C@@H]23)c2ccc(O)cc21", "µM", 170],
  ["C[C@]12CC[C@H]3[C@@H](CCC4=CC(=O)CC[C@@]43C#N)[C@@H]1CCC2=O", "µM", 25],
  ["C#CC[C@]12CCC(=O)C=C1CC[C@@H]1[C@@H]2CC[C@]2(C)C(=O)CC[C@@H]12 [PLOMESTANE]", "µM", 1],
  ["C[C@]12C[C@@H](F)C(=O)C=C1[C@H](F)C[C@@H]1[C@@H]2CC[C@]2(C)C(=O)CC[C@@H]12", "µM", 1]
]}
